- study_system: hsDHODH (Homo sapiens (Human), UniProt Q02127)
- Sequence (Q02127 whole entry): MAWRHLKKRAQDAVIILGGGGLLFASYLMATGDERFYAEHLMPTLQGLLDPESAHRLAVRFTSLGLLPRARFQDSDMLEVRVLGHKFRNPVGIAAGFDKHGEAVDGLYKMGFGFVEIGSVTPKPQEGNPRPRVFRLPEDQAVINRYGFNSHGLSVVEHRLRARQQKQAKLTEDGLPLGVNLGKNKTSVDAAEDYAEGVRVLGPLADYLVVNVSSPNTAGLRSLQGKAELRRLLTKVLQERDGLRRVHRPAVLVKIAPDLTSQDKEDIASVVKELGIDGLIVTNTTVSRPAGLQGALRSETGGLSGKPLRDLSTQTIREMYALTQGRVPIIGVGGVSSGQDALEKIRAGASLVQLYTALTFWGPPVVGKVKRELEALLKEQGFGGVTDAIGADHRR
- procedure_details: Activity test at enzyme level: DHODH inhibition, DCIP absorbance at 600 nm
- Assay type: biochemical
- experimental_setup: purified DHODH 10 nM, DHO 500 μM, CoQ 100 μM, DCIP 120 μM; read-out: IC50 (μM) hsDHODH
reported_property: IC50 (µM)
Only the number, expressed in µM, is required.

Please review the entries below; each comes with its answer.
Cc1sc(N(C)/N=C/c2ccccc2C(=O)O)nc1-c1ccccc1 [Compound 12] ... 0.0088
CN(/N=C/c1cc(O)c(F)cc1C(=O)O)c1nc(-c2ccccc2Cl)cs1 [Compound 24] ... 0.0214
O=C(O)c1c(F)cccc1/C=N/Nc1nc(-c2ccccc2Cl)cs1 [Compound 58] ... 0.234
CN(/N=C/c1ccccc1C(=O)O)c1nc(-c2cc(Cl)ccc2Cl)cs1 [Compound 19] ... 0.0282
CN(/N=C/c1ccccc1C(=O)O)c1nc(-c2cccc(Cl)c2)cs1 [Compound 21] ... 0.0106
CN(/N=C/c1cc(N)c(F)cc1C(=O)O)c1nc(-c2ccccc2Cl)cs1 [Compound 25] ... 0.0316
Cc1sc(N/N=C/c2ccccc2C(=O)O)nc1-c1ccccc1 [Compound 17] ... 0.0811
Cc1ccc(/C=N/N(C)c2nc(-c3ccccc3)c(C)s2)c(C(=O)O)c1 [Compound 11] ... 0.0136

# IC50 of CN(/N=C/c1ccccc1C(=O)O)c1nc(-c2ccccc2Cl)cs1 [Compound 1] = 0.0097

# IC50 (compound: CN(/N=C/c1ccc(F)cc1C(=O)O)c1nc(-c2ccccc2Cl)cs1 [Compound 10] ) is 0.0018

###

- study_system: UniProtKB Q02127
- procedure_details: Activity test at enzyme level: DHODH inhibition, DCIP absorbance at 600 nm
- Format: biochemical
- experimental_setup: purified DHODH 10 nM, DHO 500 μM, CoQ 100 μM, DCIP 120 μM; read-out: IC50 (μM) hsDHODH
Checkbox rule: IC50 lower than 0.02 µM = 1.0; IC50 not lower than 0.02 µM = 0.0.

Study these solved cases before continuing.
Cc1sc(N/N=C/c2ccccc2C(=O)O)nc1-c1ccccc1Cl ... 0.0
CN(/N=C/c1cc(F)c(F)cc1C(=O)O)c1nc(-c2ccccc2Cl)cs1 ... 1.0
CN(/N=C/c1ccc(C(F)(F)F)cc1C(=O)O)c1nc(-c2ccccc2Cl)cs1 ... 0.0
CCCN(/N=C/c1ccccc1C(=O)O)c1nc(-c2ccccc2Cl)cs1 ... 1.0
Cc1ccc(/C=N/N(C)c2nc(-c3ccccc3Cl)cs2)c(C(=O)O)c1 ... 1.0
CCCC(C)N(/N=C/c1ccccc1C(=O)O)c1nc(-c2ccccc2Cl)cs1 (stereo not drawn) ... 1.0
CCc1sc(N/N=C/c2ccccc2C(=O)O)nc1-c1ccccc1Cl ... 0.0
CN(/N=C/c1ccccc1C(=O)O)c1nc(-c2ccccc2)cs1 ... 0.0

For the next question, use this compound.
input: Criterion: IC50 strictly below 0.02 µM. Is it met by CCCC(C)N(/N=C/c1ccccc1C(=O)O)c1nc(-c2ccccc2Cl)c(C)s1 (stereo not drawn) ?
output: 1.0

###

- study_system: UniProtKB Q02127
- procedure_details: Activity test at enzyme level: DHODH inhibition, DCIP absorbance at 600 nm
- Format: biochemical
- experimental_setup: pharmaceutically acceptable esters (prodrugs of A and B series), hsDHODH enzyme test; read-out: IC50
reported_property: IC50

Recorded results for 8 compounds are shown here.
CC(C)OC(=O)OCOC(=O)c1ccccc1/C=N/Nc1nc(-c2ccccc2Cl)cs1 ... > 50 µM
CCCCOC(=O)c1ccccc1/C=N/Nc1nc(-c2ccccc2Cl)cs1 ... 3.53 µM
CCCOC(=O)c1ccccc1/C=N/N(C)c1nc(-c2ccccc2Cl)cs1 ... 1.96 µM
CCC(C)OC(=O)c1ccccc1/C=N/N(C)c1nc(-c2ccccc2Cl)cs1 (stereo not drawn) ... > 50 µM
CCCCCOC(=O)c1ccccc1/C=N/N(C)c1nc(-c2ccccc2Cl)cs1 ... > 50 µM
CN(/N=C/c1ccccc1C(=O)OCOC(=O)C(C)(C)C)c1nc(-c2ccccc2Cl)cs1 ... > 50 µM
O=C(OC1CCCCC1)c1ccccc1/C=N/Nc1nc(-c2ccccc2Cl)cs1 ... > 50 µM
CCC(C)OC(=O)c1ccccc1/C=N/Nc1nc(-c2ccccc2Cl)cs1 (stereo not drawn) ... 4.65 µM

Note to self: IC50 recorded for `CC(C)(C)C(=O)OCOC(=O)c1ccccc1/C=N/Nc1nc(-c2ccccc2Cl)cs1` was > 50 µM

// IC50 lookup, compound = `CCCCCCOC(=O)c1ccccc1/C=N/N(C)c1nc(-c2ccccc2Cl)cs1` , result: > 50 µM

The compound `CCCOC(=O)c1ccccc1/C=N/Nc1nc(-c2ccccc2Cl)cs1` showed IC50 equal to 1.4 µM

IC50 reported for this compound `O=C(OCc1ccccc1)c1ccccc1/C=N/Nc1nc(-c2ccccc2Cl)cs1` : > 50 µM

Note to self: IC50 recorded for `CC(C)OC(=O)c1ccccc1/C=N/Nc1nc(-c2ccccc2Cl)cs1` was 1.86 µM

Field IC50 (entry `CN(C)C(=O)c1ccccc1/C=N/Nc1nc(-c2ccccc2Cl)cs1` ) reads > 50 µM

For record `CCCCCOC(=O)c1ccccc1/C=N/Nc1nc(-c2ccccc2Cl)cs1` the listed IC50 is > 50 µM

Field IC50 (entry `CCCCOC(=O)c1ccccc1/C=N/N(C)c1nc(-c2ccccc2Cl)cs1` ) reads > 50 µM
